Taken from PubChem BioAssay (NCI).

system: NCI-H522 lung; assay: NCI tumour cell line growth inhibition, 48 h
Binary classification by TGI, with 7 µM as an inclusive lower bound for True; all other cases are False.

- O=c1cnn(C/C=C/CP(=O)(O)O)c(=O)[nH]1: True
- Nc1ccc2c(c1)N(C(=O)CCCC(=O)N1CC(CCl)c3ccc(N)cc31)CC2CCl (stereo not given): False
- CCCCCCCCCCCCOCCCCCCCCC/C=C/c1ccc2c(c1)OCCOCCOCCOCCO2: True
- N#CCN(Cc1ccccc1)[C@H]1CCC[C@]1(O)/C=C/c1ccc2c(c1)OCO2: True
- CC1=CC(=C(c2ccc(N)c(C)c2)c2ccc(N)c(C)c2)C=CC1=N: True
- COc1cccc2c(Nc3ccc(C(=O)NCCNCCO)cc3)cc(-c3ccccc3)nc12: True
- COC(=O)CC(SCCO)SCCO: True
- N.N.NCCCCN.O=C([O-])CC(=O)[O-].O=C([O-])CC(=O)[O-].[Pt+4].[Pt+4]: True
- CC[C@@]1(O)C(=O)OCc2c1cc1n(c2=O)Cc2c-1nc1ccccc1c2C=Nc1ccc(N[C@@H]2c3cc4c(cc3[C@@H](c3cc(OC)c(O)c(OC)c3)[C@H]3C(=O)OC[C@@H]32)OCO4)cc1: True
- O=C1CSC2(CC(/C=C/c3cccc(Br)c3)=NN2c2cccc(S(=O)(=O)O)c2)N1c1nc2ccccc2s1 (stereo not given): True
- COc1ccc2c(CN3CCC(CO)CC3)cc3cc4c(cc3c2c1)OCO4: False
- Cc1nc2ccc(S(=O)(=O)Nc3ccccn3)cc2c(=O)n1NS(=O)(=O)c1ccccn1: True
- CN(C)Cc1cc(N=Nc2c(Cl)cccc2Cl)ccc1O: True
- CN(C(=O)C12C3C4C1C1C2C3C41C(=O)O)C(C)(C)C (stereo not given): True
- Nc1nc(SCC(=O)O)[nH]c(=O)c1N: True
- C=C1C(=O)OC2C1C(OC(=O)/C(C)=C/C)CC(O)(CCl)C1C(OC(C)=O)C=C(C)C21O (stereo not given): False
- N#Cc1c(-c2cccc(Br)c2)cc(-c2ccc(Cl)cc2)nc1N: True
- COc1cc(-c2cc(C(=O)Nc3nc4ccccc4s3)nc3cc(-c4ccccc4)nn23)cc(OC)c1OC: True
- CN(O)C(=O)c1ccc(OCc2cccc(Cl)c2)cc1: True
